- assay-system: T1, AAV9P31 capsid (adeno-associated virus 9 variant with the 7-mer WPTSYDA inserted in VP3 VR-VIII) (adeno-associated virus 9, UniProt Q6JC40 1-736, WPTSYDA inserted between Q588 and A589)
- T1 construct: Assembled icosahedral virus particle carrying a GFP genome; capsids made from a RepCap plasmid usually hold VP1, VP2 and VP3 (surmise); also called AAV9P31 particles; AAV9P31 virion; source: HEK293T, triple-plasmid transfection, purified (iodixanol gradient ultracentrifugation)
- experimental-details: SPR; BIAcore 8K; AAV9P31 particles immobilised on a CM5 chip by amide coupling (sodium acetate pH 4.0); WT or mutated Car4 proteins flowed over at 30 ul/min, 25 °C, PBST; regeneration with 10 mM glycine pH 2.0
- test-parameters: both partners purified
parameter: Kd (nM)

Car4 (22-277) H187E (mouse residue changed to its hCar4 counterpart) (receptor, Mus musculus, UniProt Q64444 22-277, looked up, carbonic anhydrase IV (Car4), Mus musculus, residues 22-277; also called H187E_(Car4); source: E. coli BL21 (DE3), purified as the wild type; not shown: GST, N-terminal, cleaved) WCYEIQTKDPRSSCLGPEKWPGACKENQQSPINIVTARTKVNPRLTPFILVGYDQKQQWPIKNNQHTVEMTLGGGACIIGGDLPARYEAVQLHLHWSNGNDNGSEHSIDGRHFAMEMHIVHKKLTSSKEDSKDKFAVLAFMIEVGDKVNKGFQPLVEALPSISKPESTSTVRESSLQDMLPPSTKMYTYFRYNGSLTTPNCDETVIWTVYKQPIKIHKNQFLEFSKNLYYDEDQKLNMKDNVRPLQPLGKRQVFKS	0.206
